Listing: Activity of selected compounds
# System: Mus musculus
# method notes: Locomotor activity in CD1 mouse assessed as stimulation at 10 mg/kg, ip after 2 hrs relative to control
# Assay type: functional
# assay context: route intraperitoneal
Numbers only here, please. The scale is %.

# example entries with known answers
compound | unit annotation | measured value
COC(=O)[C@@H]1C2CCC(C[C@H]1c1ccc(F)cc1)N2C (stereo partly specified) | % | 105
COC(=O)[C@@H]1C2CCC(C[C@H]1c1ccc(I)cc1)N2C (stereo partly specified) | % | 100
COC(=O)[C@@H]1C2CCC(C[C@H]1c1ccc(Br)cc1)N2C (stereo partly specified) | % | 457
COC(=O)[C@H]1C2CCC(C[C@@H]1c1ccc(I)cc1)N2C (stereo partly specified) | % | 49
COC(=O)[C@H]1C2CCC(C[C@@H]1c1ccccc1)N2C (stereo partly specified) | % | 16
COC(=O)[C@H]1[C@H]2CCC(C[C@H]1c1ccc(Cl)cc1)N2C | % | 169

Inquiry: Specify Activity for COC(=O)[C@H]1C2CCC(C[C@@H]1c1ccc(Cl)cc1)N2C (stereo partly specified) , system Mus musculus.
Reply text: 1003

Inquiry: Specify Activity for COC(=O)[C@@H]1C2CCC(C[C@H]1c1ccc(C)cc1)N2C (stereo partly specified) , system Mus musculus.
Reply text: 149

* * *

# Test system: Mus musculus
# method notes: Locomotor activity in CD1 mouse assessed as stimulation at 1 mg/kg, ip after 2 hrs relative to control
# Type: functional
# assay context: route intraperitoneal
measurement label: Activity (%)
Numbers only here, please. The scale is %.

compound | measured value
COC(=O)[C@H]1C2CCC(C[C@@H]1c1ccc(F)cc1)N2C (stereo not given in full) | 5
COC(=O)[C@H]1[C@H]2CCC(C[C@H]1c1ccc(C)cc1)N2C | 110
COC(=O)[C@@H]1C2CC[C@H](C[C@@H]1c1ccc(I)cc1)N2C | 1721
COC(=O)[C@H]1C2CCC(C[C@@H]1c1ccccc1)N2C (stereo not given in full) | 35

Now for the compound whose Activity we want.
Inquiry: Complete the entry with Activity for COC(=O)[C@@H]1C2CC[C@H](C[C@@H]1c1ccc(C)cc1)N2C
Reply text: 298

* * *

List of IC50 tested on Sodium-dependent serotonin transporter (Homo sapiens, UniProt P31645).
Sequence (P31645 whole entry): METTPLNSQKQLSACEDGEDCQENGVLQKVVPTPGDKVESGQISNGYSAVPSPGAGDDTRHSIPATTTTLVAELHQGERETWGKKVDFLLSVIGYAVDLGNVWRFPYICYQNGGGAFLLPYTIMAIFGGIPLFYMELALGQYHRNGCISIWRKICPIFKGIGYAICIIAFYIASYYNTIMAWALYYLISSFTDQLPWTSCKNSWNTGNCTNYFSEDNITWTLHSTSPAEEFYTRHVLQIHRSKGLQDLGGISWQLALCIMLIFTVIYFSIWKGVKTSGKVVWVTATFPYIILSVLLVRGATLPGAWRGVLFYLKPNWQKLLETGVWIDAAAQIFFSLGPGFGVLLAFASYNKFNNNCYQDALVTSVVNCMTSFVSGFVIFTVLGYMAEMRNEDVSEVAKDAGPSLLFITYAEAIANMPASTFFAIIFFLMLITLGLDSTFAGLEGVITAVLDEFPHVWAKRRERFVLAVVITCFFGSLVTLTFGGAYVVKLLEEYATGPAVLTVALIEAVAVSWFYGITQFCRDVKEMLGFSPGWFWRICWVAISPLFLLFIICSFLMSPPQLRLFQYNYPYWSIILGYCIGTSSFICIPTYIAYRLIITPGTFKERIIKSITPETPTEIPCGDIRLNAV
Numbers only here, please. The scale is nM.

compound | IC50, nM
COC(=O)[C@H]1C2CCC(C[C@@H]1c1ccc(I)cc1)N2C (stereo partly drawn) | 66.3

Inquiry: Complete the entry with IC50 for COC(=O)[C@H]1[C@@H](c2ccc(F)cc2)C[C@H]2CC[C@H]1N2C
Reply text: 692

Inquiry: Complete the entry with IC50 for COC(=O)[C@@H]1C2CCC(C[C@H]1c1ccc(I)cc1)N2C (stereo partly drawn)
Reply text: 64.9

Inquiry: Complete the entry with IC50 for COC(=O)[C@@H]1C2CCC(C[C@@H]1c1ccc(Br)cc1)N2C (stereo partly drawn)
Reply text: 10.6

Inquiry: Complete the entry with IC50 for COC(=O)[C@@H]1C2CCC(C[C@H]1c1ccc(Br)cc1)N2C (stereo partly drawn)
Reply text: 84

Inquiry: Complete the entry with IC50 for COC(=O)[C@@H]1C2CCC(C[C@H]1c1ccc(F)cc1)N2C (stereo partly drawn)
Reply text: 5060

Inquiry: Complete the entry with IC50 for COC(=O)[C@H]1C2CCC(C[C@@H]1c1ccc(Br)cc1)N2C (stereo partly drawn)
Reply text: 570

* * *

# Tested on: Mus musculus
# method notes: Locomotor activity in CD1 mouse assessed as stimulation at 10 mg/kg, ip after 3 hrs relative to control
# Assay type: functional
# assay context: route intraperitoneal
measurement label: Activity (%)
Numbers only here, please. The scale is %.

# example entries with known answers
compound | Activity (%)
COC(=O)[C@H]1[C@H]2CCC(C[C@H]1c1ccc(Cl)cc1)N2C | 114
COC(=O)[C@@H]1C2CCC(C[C@H]1c1ccc(I)cc1)N2C (some centres undefined) | 457
COC(=O)[C@@H]1C2CCC(C[C@H]1c1ccc(F)cc1)N2C (some centres undefined) | 146

Now for the compound whose Activity we want.
Inquiry: Complete the entry with Activity for COC(=O)[C@H]1C2CCC(C[C@@H]1c1ccc(C)cc1)N2C (some centres undefined)
Reply text: 6

* * *

Listing: Activity of selected compounds
# Test system: Mus musculus
# method notes: Locomotor activity in CD1 mouse assessed as stimulation at 10 mg/kg, ip after 2 hrs relative to control
# Type: functional
# assay context: route intraperitoneal
Numbers only here, please. The scale is %.

# example entries with known answers
compound | Activity, %
COC(=O)[C@@H]1C2CC[C@H](C[C@@H]1c1ccc(C)cc1)N2C | 476
COC(=O)[C@H]1C2CCC(C[C@@H]1c1ccc(Br)cc1)N2C (stereo partly drawn) | 268

Now for the compound whose Activity we want.
Inquiry: Complete the entry with Activity for COC(=O)[C@@H]1C2CCC(C[C@H]1c1ccc(Cl)cc1)N2C (stereo partly drawn)
Reply text: 322

These measurements were taken from ChEMBL document CHEMBL1149262.
